Hello, the source for this data is ChEMBL document CHEMBL1287651, in case you need it.

- Test system: Staphylococcus epidermidis
- TEST_SUMMARY: Antibacterial activity against methicillin-resistant Staphylococcus epidermidis 09-3 after 18 to 24 hrs by twofold serial dilution method
- Format: functional
MEASUREMENT_KIND: MIC (µg/mL)
Numbers only here, please. The scale is µg/mL.

CCO/N=C(/N)C1CN(c2c(F)cc3c(=O)c(C(=O)O)cn4c3c2OC[C@@H]4C)C/C1=N\OC (some centres undefined)
0.06
CCO/N=C1\CN(c2c(F)cc3c(=O)c(C(=O)O)cn(C4CC4)c3c2OC)CC1/C(N)=N\OCC (centres undefined)
1

# ---- query compound ----
The recorded MIC with Staphylococcus epidermidis for CCO/N=C1\CN(c2c(F)cc3c(=O)c(C(=O)O)cn(C4CC4)c3c2OC(F)F)CC1/C(N)=N\O (centres undefined) was 1

----------
- Test system: Klebsiella pneumoniae
- TEST_SUMMARY: Antibacterial activity against Klebsiella pneumoniae 09-22 after 18 to 24 hrs by twofold serial dilution method
- Type: functional
# key: entry, value: log10(MIC)
Heads up, the numbers here are log10 of MIC in µg/mL units.

CCO/N=C1\CN(c2c(F)cc3c(=O)c(C(=O)O)cn(C4CC4)c3c2OC)CC1/C(N)=N\O (stereo not drawn)
0.60

Given item CCO/N=C(/N)C1CN(c2c(F)cc3c(=O)c(C(=O)O)cn4c3c2OC[C@@H]4C)C/C1=N\OC (stereo partly drawn) , the value recorded as its log10(MIC) is -0.30

Given item CO/N=C1\CN(c2nc3c(cc2F)c(=O)c(C(=O)O)cn3C2CC2)CC1/C(N)=N\O (stereo not drawn) , the value recorded as its log10(MIC) is 1.51

Given item CCO/N=C1\CN(c2c(F)cc3c(=O)c(C(=O)O)cn(CCF)c3c2F)CC1/C(N)=N\O (stereo not drawn) , the value recorded as its log10(MIC) is 0.60

Given item CCO/N=C1\CN(c2nc3c(cc2F)c(=O)c(C(=O)O)cn3-c2ccc(F)cc2F)CC1/C(N)=N\OCC (stereo not drawn) , the value recorded as its log10(MIC) is 2.11

Given item CCO/N=C1\CN(c2c(F)cc3c(=O)c(C(=O)O)cn4c3c2OC[C@@H]4C)CC1/C(N)=N\OC (stereo partly drawn) , the value recorded as its log10(MIC) is 0.00

Given item CCO/N=C(/N)C1CN(c2nc3c(cc2F)c(=O)c(C(=O)O)cn3C2CC2)C/C1=N\OC (stereo not drawn) , the value recorded as its log10(MIC) is 1.20

Given item CCO/N=C1\CN(c2c(F)cc3c(=O)c(C(=O)O)cn4c3c2OC[C@@H]4C)CC1/C(N)=N\O (stereo partly drawn) , the value recorded as its log10(MIC) is 1.20

----------
- System: Staphylococcus aureus
- TEST_SUMMARY: Antibacterial activity against Staphylococcus aureus ATCC […] after 18 to 24 hrs by twofold serial dilution method
- Type: functional
MEASUREMENT_KIND: MIC (µg/mL)
Numbers only here, please. The scale is µg/mL.

CCO/N=C1\CN(c2nc3c(cc2F)c(=O)c(C(=O)O)cn3C2CC2)CC1/C(N)=N\OC (stereo not given)
0.5
CCO/N=C1\CN(c2c(F)cc3c(=O)c(C(=O)O)cn(CCF)c3c2F)CC1/C(N)=N\O (stereo not given)
0.5
CCO/N=C(/N)C1CN(c2c(F)cc3c(=O)c(C(=O)O)cn(C4CC4)c3c2F)C/C1=N\OC (stereo not given)
0.06
CCO/N=C1\CN(c2c(F)cc3c(=O)c(C(=O)O)cn(CC)c3c2F)CC1/C(N)=N\OCC (stereo not given)
8
CCO/N=C1\CN(c2c(F)cc3c(=O)c(C(=O)O)cn(C4CC4)c3c2OC)CC1/C(N)=N\O (stereo not given)
0.25

# ---- query compound ----
Given item CCO/N=C1\CN(c2c(F)cc3c(=O)c(C(=O)O)cn(C4CC4)c3c2OC(F)F)CC1/C(N)=N\OC (stereo not given) , the value recorded as its MIC is 0.125

----------
- System: Escherichia coli
- TEST_SUMMARY: Antibacterial activity against Escherichia coli ATCC 25922 after 18 to 24 hrs by twofold serial dilution method
- Type: functional
MEASUREMENT_KIND: MIC

Use the examples below as a reference point.
CO/N=C1\CN(c2c(F)cc3c(=O)c(C(=O)O)cn4c3c2OC[C@@H]4C)CC1/C(N)=N\O (some centres not stated)
128 µg/mL
CCO/N=C1\CN(c2nc3c(cc2F)c(=O)c(C(=O)O)cn3-c2ccc(F)cc2F)CC1/C(N)=N\OCC (configuration not stated)
16 µg/mL
CCO/N=C(/N)C1CN(c2c(F)cc3c(=O)c(C(=O)O)cn4c3c2OC[C@@H]4C)C/C1=N\OC (some centres not stated)
128 µg/mL
CCO/N=C1\CN(c2c(F)cc3c(=O)c(C(=O)O)cn4c3c2OC[C@@H]4C)CC1/C(N)=N\OC (some centres not stated)
128 µg/mL
CCO/N=C1\CN(c2c(F)cc3c(=O)c(C(=O)O)cn4c3c2OC[C@@H]4C)CC1/C(N)=N\OCC (some centres not stated)
128 µg/mL

Given item CCO/N=C1\CN(c2nc3c(cc2F)c(=O)c(C(=O)O)cn3C2CC2)CC1/C(N)=N\O (configuration not stated) , the value recorded as its MIC is > 128 µg/mL

Given item CCO/N=C1\CN(c2c(F)cc3c(=O)c(C(=O)O)cn(C4CC4)c3c2OC(F)F)CC1/C(N)=N\O (configuration not stated) , the value recorded as its MIC is 128 µg/mL

Given item CCO/N=C1\CN(c2c(F)cc3c(=O)c(C(=O)O)cn(CC)c3c2F)CC1/C(N)=N\OC (configuration not stated) , the value recorded as its MIC is > 128 µg/mL

Given item CCO/N=C1\CN(c2c(F)cc3c(=O)c(C(=O)O)cn(C4CC4)c3c2OC(F)F)CC1/C(N)=N\OC (configuration not stated) , the value recorded as its MIC is 16 µg/mL

----------
- Tested on: Enterococcus faecium
- TEST_SUMMARY: Antibacterial activity against Enterococcus faecium 08-7 after 18 to 24 hrs by twofold serial dilution method
- Format: functional
MEASUREMENT_KIND: MIC

Given item CCO/N=C1\CN(c2c(F)cc3c(=O)c(C(=O)O)cn4c3c2OC[C@@H]4C)CC1/C(N)=N\OC (some centres undefined) , the value recorded as its MIC is > 128 µg/mL

----------
- Tested on: Staphylococcus aureus
- TEST_SUMMARY: Antibacterial activity against Staphylococcus aureus ATCC […] after 18 to 24 hrs by twofold serial dilution method
- Assay type: functional
MEASUREMENT_KIND: MIC (µg/mL)
Numbers only here, please. The scale is µg/mL.

Use the examples below as a reference point.
CCO/N=C1\CN(c2nc3c(cc2F)c(=O)c(C(=O)O)cn3-c2ccc(F)cc2F)CC1/C(N)=N\OC (stereo not drawn)
0.25
CCO/N=C1\CN(c2c(F)cc3c(=O)c(C(=O)O)cn(C4CC4)c3c2F)CC1/C(N)=N\OC (stereo not drawn)
0.125
CCn1cc(C(=O)O)c(=O)c2cc(F)c(N3C/C(=N\OC)C(/C(N)=N\OC)C3)c(F)c21 (stereo not drawn)
0.25
CCO/N=C1\CN(c2c(F)cc3c(=O)c(C(=O)O)cn4c3c2OC[C@@H]4C)CC1/C(N)=N\OCC (stereo partly drawn)
1
CO/N=C1\CN(c2c(F)cc3c(=O)c(C(=O)O)cn4c3c2OC[C@@H]4C)CC1/C(N)=N\O (stereo partly drawn)
0.125

Given item CO/N=C1\CN(c2c(F)cc3c(=O)c(C(=O)O)cn(C4CC4)c3c2F)CC1/C(N)=N\OC (stereo not drawn) , the value recorded as its MIC is 0.125

Given item CCO/N=C(/N)C1CN(c2nc3c(cc2F)c(=O)c(C(=O)O)cn3-c2ccc(F)cc2F)C/C1=N\OC (stereo not drawn) , the value recorded as its MIC is 0.125

Given item CO/N=C1\CN(c2c(F)cc3c(=O)c(C(=O)O)cn(C4CC4)c3c2OC)CC1/C(N)=N\O (stereo not drawn) , the value recorded as its MIC is 0.25

----------
- Tested on: Pseudomonas aeruginosa
- TEST_SUMMARY: Antibacterial activity against Pseudomonas aeruginosa 09-32 after 18 to 24 hrs by twofold serial dilution method
- Format: functional
MEASUREMENT_KIND: MIC

Use the examples below as a reference point.
CCO/N=C(/N)C1CN(c2c(F)cc3c(=O)c(C(=O)O)cn(CCF)c3c2F)C/C1=N\OC (centres undefined)
> 128 µg/mL
CCO/N=C(/N)C1CN(c2c(F)cc3c(=O)c(C(=O)O)cn(C4CC4)c3c2F)C/C1=N\OC (centres undefined)
> 128 µg/mL
CCO/N=C1\CN(c2c(F)cc3c(=O)c(C(=O)O)cn(C4CC4)c3c2OC)CC1/C(N)=N\OCC (centres undefined)
64 µg/mL
CCO/N=C1\CN(c2c(F)cc3c(=O)c(C(=O)O)cn(C4CC4)c3c2OC)CC1/C(N)=N\OC (centres undefined)
> 128 µg/mL

Given item CO/N=C1\CN(c2nc3c(cc2F)c(=O)c(C(=O)O)cn3C2CC2)CC1/C(N)=N\O (centres undefined) , the value recorded as its MIC is 8 µg/mL

Given item CCO/N=C1\CN(c2nc3c(cc2F)c(=O)c(C(=O)O)cn3-c2ccc(F)cc2F)CC1/C(N)=N\OC (centres undefined) , the value recorded as its MIC is > 128 µg/mL

Given item CO/N=C1\CN(c2c(F)cc3c(=O)c(C(=O)O)cn(CCF)c3c2F)CC1/C(N)=N\O (centres undefined) , the value recorded as its MIC is > 128 µg/mL

Given item CCO/N=C1\CN(c2c(F)cc3c(=O)c(C(=O)O)cn(CC)c3c2F)CC1/C(N)=N\OC (centres undefined) , the value recorded as its MIC is > 128 µg/mL

Given item CCO/N=C1\CN(c2c(F)cc3c(=O)c(C(=O)O)cn(C4CC4)c3c2OC(F)F)CC1/C(N)=N\OC (centres undefined) , the value recorded as its MIC is 64 µg/mL
